# EXPERIMENTAL TARGET: T1, wild-type mouse C140 receptor (mouse, UniProt P55086 32-399)
# T1 sequence: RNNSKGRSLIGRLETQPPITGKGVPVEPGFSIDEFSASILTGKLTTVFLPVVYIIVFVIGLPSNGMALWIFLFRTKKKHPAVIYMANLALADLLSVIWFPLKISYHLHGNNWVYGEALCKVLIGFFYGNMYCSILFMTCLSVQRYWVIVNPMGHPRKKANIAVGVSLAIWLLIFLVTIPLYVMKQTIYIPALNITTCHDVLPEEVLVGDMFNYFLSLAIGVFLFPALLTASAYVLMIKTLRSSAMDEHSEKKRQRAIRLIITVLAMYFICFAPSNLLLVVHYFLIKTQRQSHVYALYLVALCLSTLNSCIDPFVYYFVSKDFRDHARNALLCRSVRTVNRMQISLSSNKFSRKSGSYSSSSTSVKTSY
# TEST METHOD NOTES: cell-based or functional assay

[
  {
    "BINDER": "SLAGRL [peptide SLAGRL]",
    "Fold Increase in 45Ca": "0 fold"
  },
  {
    "BINDER": "SLIGAL [peptide SLIGAL]",
    "Fold Increase in 45Ca": "0 fold"
  },
  {
    "BINDER": "SLIARL [peptide SLIARL]",
    "Fold Increase in 45Ca": "4.3 fold"
  },
  {
    "BINDER": "SLIGRA [peptide SLIGRA]",
    "Fold Increase in 45Ca": "8.5 fold"
  },
  {
    "BINDER": "SAIGRL [peptide SAIGRL]",
    "Fold Increase in 45Ca": "0 fold"
  },
  {
    "BINDER": "SLIGRL [agonist peptide SLIGRL]",
    "Fold Increase in 45Ca": "15 fold"
  },
  {
    "BINDER": "SFFLRW [thrombin receptor agonist SFFLRW]",
    "Fold Increase in 45Ca": "1.7 fold"
  },
  {
    "BINDER": "ALIGRL [peptide ALIGRL]",
    "Fold Increase in 45Ca": "1.3 fold"
  }
]
